A set of compounds tested on OVCAR-8 ovarian, with measured GI50:

Known results for compounds:
NC1CCCCC1N.O=NN1CCCCCC1(P(=O)([O-])[O-])P(=O)([O-])[O-].[Na+].[Pt+2]
> 100 µM
Cc1ccc2c(c1)c(C1=C(c3cn(C)c4ccccc34)C(=O)NC1=O)cn2C
5.3 µM
Nc1nonc1-c1nc2cnccc2n1C1CCCCC1
12.8 µM
CCN(CC)CCNc1ccc(C)c2sc3ccccc3c(=O)c12 (tested in a mixture with another compound)
6.63 µM

Moving on to another compound below.
Assay OVCAR-8 ovarian, sample `Cc1nc2ccccn2c1NC(=O)NNC(=S)Nc1ccc(Cl)cc1` , GI50 read: > 100 µM

All figures here come from PubChem BioAssay (NCI).
